Target: T1, Claudin-9 (CLDN9) (human, UniProt O95484 1-217)
T1 construct: whole, on cells; also called CLDN9-GFP; CLDN9-mGFP
T1 sequence (looked up): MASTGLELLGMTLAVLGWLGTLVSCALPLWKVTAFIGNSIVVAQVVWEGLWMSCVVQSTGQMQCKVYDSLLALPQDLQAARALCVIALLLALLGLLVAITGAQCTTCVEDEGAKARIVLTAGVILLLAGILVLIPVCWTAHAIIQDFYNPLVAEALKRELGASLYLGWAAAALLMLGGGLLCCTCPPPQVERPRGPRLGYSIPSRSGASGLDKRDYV
Test: FACS titration of labelled mAb on HEK293T CLDN9-mGFP cells
Would you kindly list EC50 for each of these binders?
Numbers only, in nM.

Consider the reported EC50 for these binders:
binder="AB8 (antibody, V domains shown, full-length IgG (ExpiCHO)) VH: QVQLQQSGAELARPGASVKMSCKASGYTFTTYTMHWLKQRPGQGLEWIGYINPRSGYSNYNQKFKDKATLTADKSSNTAYMQLNTLTSEDSKVYYCSRGELGGFAYWGQGTLVTVSA VL: DVVMTQTPLSLPVSLGDQASISCRSSQSLVHSDGNTYLYWYLQKPGQSPKLLIYKVSNRFSGVPDRFSGSGSGTDFTLKISRVEAEDLGVYFCSQSTHVPYTFGGGTKLEIK" reading_unit=nM recorded_number=2770
binder="AB10 (antibody, V domains shown, full-length IgG (ExpiCHO)) VH: QIQLVQSGPALKKPGETVKISCKASGYTFTDYSMHWIKQAPGKGLKWMGWISTETGEPTYADGFKGRFDFSLETSADTAYLSINNLTNEDTATYFCTRGLWSSFAYWGQGTLVTVSA VL: DVVMTQTPLSLPVSLGDQASISCRASQSLVHSNGNTYLHWFLQKPGQSPKLLIYKVSNRFSGVPDRFSGSGSRTDFTLKISRVEAEDLGVYFCSQITHVPYTFGGGTKLEIK" reading_unit=nM recorded_number=246

Please examine the following record next.
QUERY: Which EC50 reading was recorded for the binder AB1 (antibody, V domains shown, full-length IgG (ExpiCHO)) VH: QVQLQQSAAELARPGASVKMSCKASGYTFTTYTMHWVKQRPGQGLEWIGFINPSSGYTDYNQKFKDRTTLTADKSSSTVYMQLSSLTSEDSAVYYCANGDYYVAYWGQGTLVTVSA VL: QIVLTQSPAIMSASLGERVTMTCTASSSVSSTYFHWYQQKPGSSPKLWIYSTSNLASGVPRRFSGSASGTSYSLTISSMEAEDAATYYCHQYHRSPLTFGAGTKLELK ?
RESULT: 2760
